method.summary: AUC in rat at 3 mg/kg, po by LC-MS/MS analysis
Format: ADME, organism-based
test.parameters: in vivo
value.type: AUC
Form entry: enter the amount, then its unit.

Report AUC for COc1cc2nc([C@H]3CC[C@H](CN4CC5(CC(CCNc6cccc7c6C(=O)N(C6CCC(=O)NC6=O)C7=O)C5)C4)CC3)oc2cc1NC(=O)c1cccc(C(F)(F)F)n1 (stereo partly specified) please. 0.5 µM·h

---

method.summary: Clearance in rat at 2 mg/kg, iv by LC-MS/MS analysis
Format: ADME, organism-based
test.parameters: in vivo
Can you tell me clearance for the items I'm about to list?
State the answer as a number, implicitly in mL/min/kg.

Report clearance for COc1cc2nc([C@H]3CC[C@H](CN4CC5(CC(CCNc6cccc7c6C(=O)N(C6CCC(=O)NC6=O)C7=O)C5)C4)CC3)cn2cc1NC(=O)c1cccc(C(F)(F)F)n1 (stereo partly specified) please. 40

Further, for COc1cc2nc([C@H]3CC[C@H](CN4CC5(CC(CCNc6cccc7c6C(=O)N(C6CCC(=O)NC6=O)C7=O)C5)C4)CC3)n(C)c2cc1NC(=O)c1cccc(C(F)(F)F)n1 (stereo partly specified) ? 41

Further, for CC(C)(O)c1cc2nn([C@H]3CC[C@H](CN4CCC5(CC4)CC(CNc4cccc6c4C(=O)N(C4CCC(=O)NC4=O)C6=O)C5)CC3)cc2cc1NC(=O)c1cccc(C(F)(F)F)n1 (stereo partly specified) ? 15

Further, for CC(C)(O)c1cc2nc([C@H]3CC[C@H](CN4CC5(CC(CCNc6cccc7c6C(=O)N(C6CCC(=O)NC6=O)C7=O)C5)C4)CC3)sc2cc1NC(=O)c1cccc(C(F)(F)F)n1 (stereo partly specified) [ZOMIRADOMIDE] ? 9.1

Further, for CN(CCCO[C@H]1C[C@H](Nc2cccc3c2C(=O)N(C2CCC(=O)NC2=O)C3=O)C1)C[C@H]1CC[C@H](n2cc3cc(NC(=O)c4cccc(C(F)(F)F)n4)c(C(C)(C)O)cc3n2)CC1 (stereo partly specified) ? 36

Further, for CC(C)(O)c1cc2nn([C@H]3CC[C@H](CN4CCC(O[C@H]5C[C@H](Nc6cccc7c6C(=O)N(C6CCC(=O)NC6=O)C7=O)C5)CC4)CC3)cc2cc1NC(=O)c1cccc(C(F)(F)F)n1 (stereo partly specified) ? 7
